Assay: AUC (0 to t) in male Sprague-Dawley rat at 10 mg/kg, ip measured upto 24 hrs by LC-MS/MS analysis
Type: ADME, organism-based
Conditions: in vivo

{"columns": ["MOLECULE", "AUC(0-t) at 24 h"],
 "data": [
  ["COc1cc(Nc2nc(N3CCN(CCOCCNc4cccc5c4C(=O)N(C4CCC(=O)NC4=O)C5=O)CC3)ncc2F)ccc1NC(=O)c1ccc(C2=CCCC2)s1 (stereo unspecified)", "33800 ng·h/mL"]
]}

###

Target: Protein cereblon/B-cell lymphoma 6 protein (Homo sapiens, UniProt Q96SW2+P41182)
Sequence (Q96SW2 whole entry, looked up, other chains not shown): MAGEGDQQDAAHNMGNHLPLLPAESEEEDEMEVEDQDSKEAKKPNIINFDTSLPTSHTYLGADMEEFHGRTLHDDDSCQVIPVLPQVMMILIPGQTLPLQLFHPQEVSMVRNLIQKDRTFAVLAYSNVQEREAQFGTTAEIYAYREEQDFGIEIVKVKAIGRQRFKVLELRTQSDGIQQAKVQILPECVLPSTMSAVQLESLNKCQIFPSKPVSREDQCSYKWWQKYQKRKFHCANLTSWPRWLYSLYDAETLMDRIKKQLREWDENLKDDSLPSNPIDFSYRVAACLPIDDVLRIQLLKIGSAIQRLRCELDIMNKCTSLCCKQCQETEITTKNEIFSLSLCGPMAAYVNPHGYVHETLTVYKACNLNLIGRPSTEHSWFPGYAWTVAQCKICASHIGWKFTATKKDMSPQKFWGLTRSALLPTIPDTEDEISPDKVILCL
Test: PROTAC activity at CRBN/BCL6 in BCL6-dependent human SU-DHL-4 cells assessed as induction of BCL6 degradation by measuring degradation rate at 10 uM incubated for 48 hrs by Western blot analysis relative to control
Assay type: cell-based
MEASURED ENDPOINT: Activity

{"columns": ["MOLECULE", "MEASURED"],
 "data": [
  ["COc1cc(Nc2nc(N3CCN(CCOCCNc4cccc5c4CC(C4CCC(=O)NC4=O)C5=O)CC3)ncc2F)ccc1NC(=O)c1ccc(C2=CCCC2)s1 (configuration not stated)", "37.1%"],
  ["COc1cc(Nc2nc(N3CCN(CCOCCOCCNc4cccc5c4C(=O)N(C4CCC(=O)NC4=O)C5=O)CC3)ncc2F)ccc1NC(=O)c1ccc(C2=CCCC2)s1 (configuration not stated)", "38.3%"],
  ["COc1cc(Nc2nc(N3CCN(C(=O)CCOCCNc4cccc5c4CC(C4CCC(=O)NC4=O)C5=O)CC3)ncc2F)ccc1NC(=O)c1ccc(C2=CCCC2)s1 (configuration not stated)", "37%"],
  ["COc1cc(Nc2nc(N3CCN(C(=O)CCC4CCN(c5cccc6c5C(=O)N(C5CCC(=O)NC5=O)C6=O)CC4)CC3)ncc2F)ccc1NC(=O)c1ccc(C2=CCCC2)s1 (configuration not stated)", "24.1%"],
  ["COc1cc(Nc2nc(N3CCN(C(=O)CCOCCNc4cc5c(cc4F)C(=O)C(C4CCC(=O)NC4=O)C5=O)CC3)ncc2F)ccc1NC(=O)c1ccc(C2=CCCC2)s1 (configuration not stated)", "0%"],
  ["COc1cc(Nc2nc(N3CCN(C(=O)CCCCCNc4cccc5c4C(=O)N(C4CCC(=O)NC4=O)C5=O)CC3)ncc2F)ccc1NC(=O)c1ccc(C2=CCCC2)s1 (configuration not stated)", "54.1%"],
  ["COc1cc(Nc2nc(N3CCN(CCOCCOc4cccc5c4C(=O)C(C4CCC(=O)NC4=O)C5=O)CC3)ncc2F)ccc1NC(=O)c1ccc(C2=CCCC2)s1 (configuration not stated)", "26.3%"],
  ["COc1cc(Nc2nc(N3CCN(C(=O)CC4CCN(c5cccc6c5C(=O)N(C5CCC(=O)NC5=O)C6=O)CC4)CC3)ncc2F)ccc1NC(=O)c1ccc(C2=CCCC2)s1 (configuration not stated)", "2.7%"],
  ["COc1cc(Nc2nc(N3CCN(CCOCCNc4cccc5c4C(=O)N(C4CCC(=O)N(C)C4=O)C5=O)CC3)ncc2F)ccc1NC(=O)c1ccc(C2=CCCC2)s1 (configuration not stated)", "20.7%"],
  ["COc1cc(Nc2nc(N3CCN(CCCCNc4cccc5c4C(=O)N(C4CCC(=O)NC4=O)C5=O)CC3)ncc2F)ccc1NC(=O)c1ccc(C2=CCCC2)s1 (configuration not stated)", "36.3%"],
  ["COc1cc(Nc2nc(N3CCN(C(=O)CCOCC#Cc4cccc5c4CN(C4CCC(=O)NC4=O)C5=O)CC3)ncc2F)ccc1NC(=O)c1ccc(C2=CCCC2)s1 (configuration not stated)", "73.2%"],
  ["COc1cc(Nc2nc(N3CCN(CCCCCCNc4cccc5c4C(=O)N(C4CCC(=O)NC4=O)C5=O)CC3)ncc2F)ccc1NC(=O)c1ccc(C2=CCCC2)s1 (configuration not stated)", "55.8%"]
]}

###

Assay: Tmax in male Sprague-Dawley rat at 20 mg/kg, po measured upto 24 hrs by LC-MS/MS analysis
Type: ADME, organism-based
Details: in vivo

{"columns": ["MOLECULE", "Tmax / h"],
 "data": [
  ["COc1cc(Nc2nc(N3CCN(CCOCCNc4cccc5c4C(=O)N(C4CCC(=O)NC4=O)C5=O)CC3)ncc2F)ccc1NC(=O)c1ccc(C2=CCCC2)s1 (stereo unspecified)", 1]
]}

###

Parameter: Activity. Scope: all listed entries.
Molecular target: Protein cereblon/B-cell lymphoma 6 protein (Homo sapiens, UniProt Q96SW2+P41182)
Test: PROTAC activity at CRBN/BCL6 in BCL6-dependent human SU-DHL-4 cells assessed as induction of BCL6 degradation by measuring degradation rate at 1 uM incubated for 48 hrs by Western blot analysis relative to control
Assay type: cell-based
MEASURED ENDPOINT: Activity (%)

{"columns": ["COMPOUND", "MEASUREMENT UNIT", "MEASURED"],
 "data": [
  ["COc1cc(Nc2nc(N3CCN(CCOCCNc4cccc5c4C(=O)N(C4CCC(=O)NC4=O)C5=O)CC3)ncc2F)ccc1NC(=O)c1ccc(C2=CCCC2)s1 (configuration not stated)", "%", 81.8],
  ["COc1cc(Nc2nc(N3CCN(C(=O)CCOCCOCCOCCNc4cccc5c4C(=O)N(C4CCC(=O)NC4=O)C5=O)CC3)ncc2F)ccc1NC(=O)c1ccc(C2=CCCC2)s1 (configuration not stated)", "%", 34.7],
  ["COc1cc(Nc2nc(N3CCN(C(=O)CCC4CCN(c5cccc6c5C(=O)N(C5CCC(=O)NC5=O)C6=O)CC4)CC3)ncc2F)ccc1NC(=O)c1ccc(C2=CCCC2)s1 (configuration not stated)", "%", 23.1],
  ["COc1cc(Nc2nc(N3CCN(C(=O)CCOCCOCCNc4cccc5c4C(=O)N(C4CCC(=O)NC4=O)C5=O)CC3)ncc2F)ccc1NC(=O)c1ccc(C2=CCCC2)s1 (configuration not stated)", "%", 28.2],
  ["COc1cc(Nc2nc(N3CCN(C(=O)CC4CCN(c5cccc6c5C(=O)N(C5CCC(=O)NC5=O)C6=O)CC4)CC3)ncc2F)ccc1NC(=O)c1ccc(C2=CCCC2)s1 (configuration not stated)", "%", 7.1],
  ["COc1cc(Nc2nc(N3CCN(CCOCCNc4cccc5c4C(=O)N(C4CCC(=O)N(C)C4=O)C5=O)CC3)ncc2F)ccc1NC(=O)c1ccc(C2=CCCC2)s1 (configuration not stated)", "%", 11.9],
  ["COc1cc(Nc2nc(N3CCN(C(=O)CCOCCNc4ccc5c(c4)C(=O)C(C4CCC(=O)NC4=O)C5=O)CC3)ncc2F)ccc1NC(=O)c1ccc(C2=CCCC2)s1 (configuration not stated)", "%", 36.6],
  ["COc1cc(Nc2nc(N3CCN(CCCCCCNc4cccc5c4C(=O)N(C4CCC(=O)NC4=O)C5=O)CC3)ncc2F)ccc1NC(=O)c1ccc(C2=CCCC2)s1 (configuration not stated)", "%", 42.9],
  ["COc1cc(Nc2nc(N3CCN(CCOCCOc4cccc5c4C(=O)C(C4CCC(=O)NC4=O)C5=O)CC3)ncc2F)ccc1NC(=O)c1ccc(C2=CCCC2)s1 (configuration not stated)", "%", 13.5],
  ["COc1cc(Nc2nc(N3CCN(CCCCNc4cccc5c4C(=O)N(C4CCC(=O)NC4=O)C5=O)CC3)ncc2F)ccc1NC(=O)c1ccc(C2=CCCC2)s1 (configuration not stated)", "%", 40.6],
  ["COc1cc(Nc2nc(N3CCN(C(=O)CCOCCNc4cccc5c4CC(C4CCC(=O)NC4=O)C5=O)CC3)ncc2F)ccc1NC(=O)c1ccc(C2=CCCC2)s1 (configuration not stated)", "%", 11.1],
  ["COc1cc(Nc2nc(N3CCN(C(=O)CCCCCNc4cccc5c4C(=O)N(C4CCC(=O)NC4=O)C5=O)CC3)ncc2F)ccc1NC(=O)c1ccc(C2=CCCC2)s1 (configuration not stated)", "%", 38]
]}

###

Assay: Half life in male Sprague-Dawley rat at 10 mg/kg, ip measured upto 24 hrs by LC-MS/MS analysis
Format: ADME, organism-based
Conditions: in vivo

{"columns": ["COMPOUND", "half-life"],
 "data": [
  ["COc1cc(Nc2nc(N3CCN(CCOCCNc4cccc5c4C(=O)N(C4CCC(=O)NC4=O)C5=O)CC3)ncc2F)ccc1NC(=O)c1ccc(C2=CCCC2)s1 (stereo unspecified)", "155 min"]
]}

###

Biological target: Protein cereblon/B-cell lymphoma 6 protein (Homo sapiens, UniProt Q96SW2+P41182)
Test: PROTAC activity at CRBN/BCL6 in BCL6-dependent human SU-DHL-4 cells assessed as induction of BCL6 degradation by measuring degradation rate at 1 uM incubated for 48 hrs by Western blot analysis relative to control
Format: cell-based

{"columns": ["COMPOUND", "Activity, %"],
 "data": [
  ["COc1cc(Nc2nc(N3CCN(CCCCCNc4cccc5c4C(=O)N(C4CCC(=O)NC4=O)C5=O)CC3)ncc2F)ccc1NC(=O)c1ccc(C2=CCCC2)s1 (stereo not drawn)", 58.4],
  ["COc1cc(Nc2nc(N3CCN(C(=O)CCCCNc4cccc5c4C(=O)N(C4CCC(=O)NC4=O)C5=O)CC3)ncc2F)ccc1NC(=O)c1ccc(C2=CCCC2)s1 (stereo not drawn)", 0.1],
  ["COc1cc(Nc2nc(N3CCN(C(=O)CCOCC#Cc4cccc5c4CN(C4CCC(=O)NC4=O)C5=O)CC3)ncc2F)ccc1NC(=O)c1ccc(C2=CCCC2)s1 (stereo not drawn)", 27.4]
]}

All values here come from ChEMBL document CHEMBL5614419.
